# target-or-test-system: AXL (Homo sapiens)
# Sequence (P30530 26-894): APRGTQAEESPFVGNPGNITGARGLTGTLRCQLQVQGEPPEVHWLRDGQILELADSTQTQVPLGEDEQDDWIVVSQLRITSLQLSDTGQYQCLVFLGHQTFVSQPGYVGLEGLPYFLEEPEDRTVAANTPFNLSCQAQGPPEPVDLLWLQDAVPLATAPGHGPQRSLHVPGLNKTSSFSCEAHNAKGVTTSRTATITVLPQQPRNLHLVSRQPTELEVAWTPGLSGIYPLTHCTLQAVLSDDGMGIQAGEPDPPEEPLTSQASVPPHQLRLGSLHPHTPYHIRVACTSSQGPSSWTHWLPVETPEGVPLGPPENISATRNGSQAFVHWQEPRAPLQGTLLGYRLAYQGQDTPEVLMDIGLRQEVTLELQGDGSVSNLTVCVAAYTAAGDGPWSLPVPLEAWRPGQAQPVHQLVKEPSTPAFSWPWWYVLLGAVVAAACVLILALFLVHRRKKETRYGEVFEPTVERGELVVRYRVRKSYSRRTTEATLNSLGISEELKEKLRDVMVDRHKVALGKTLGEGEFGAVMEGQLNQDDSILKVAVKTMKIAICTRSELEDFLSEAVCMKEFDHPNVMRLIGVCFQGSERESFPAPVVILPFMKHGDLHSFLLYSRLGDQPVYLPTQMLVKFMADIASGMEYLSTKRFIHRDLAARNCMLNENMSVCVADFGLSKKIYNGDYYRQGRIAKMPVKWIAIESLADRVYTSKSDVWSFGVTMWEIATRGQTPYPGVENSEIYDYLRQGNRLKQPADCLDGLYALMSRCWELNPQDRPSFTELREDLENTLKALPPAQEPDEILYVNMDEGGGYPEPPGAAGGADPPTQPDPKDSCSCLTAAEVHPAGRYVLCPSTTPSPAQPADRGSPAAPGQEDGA

{"molecule": "COC[C@H](C)Nc1ncc2c(-c3cccc(C4CCc5nc(C)[nH]c5C4)c3)cc([C@H]3CC[C@H](O)CC3)n2n1 (stereo partly shown)", "IC50": "≤ 100 nM"}
{"molecule": "C[C@@H](CC(F)(F)F)Nc1ncc2c(-c3cnn(C(C)(C)C(=O)N4CC5(COC5)C4)c3)cc([C@H]3CC[C@H](O)CC3)n2n1", "IC50": "≤ 100 nM"}
{"molecule": "COC[C@H](C)Nc1ncc2c(-c3cnn(C(C)(C)C(=O)N4CCO[C@@H](C(C)(C)O)C4)c3)cc([C@H]3CC[C@H](O)CC3)n2n1", "IC50": "≤ 100 nM"}
{"molecule": "CC[C@H](C)Nc1ncc2c(C3=CCNCC3)cc([C@H]3CC[C@H](O)CC3)n2n1", "IC50": "≤ 100 nM"}
{"molecule": "COCCn1cc(-c2cc([C@H]3CC[C@H](O)CC3)n3nc(N[C@@H](C)COC)ncc23)cn1", "IC50": "100 to 1000 nM"}
{"molecule": "C[C@@H](CC(F)(F)F)Nc1ncc2c(-c3ccc([S@@](C)(=N)=O)nc3)cc([C@H]3CC[C@H](O)CC3)n2n1", "IC50": "≤ 100 nM"}
{"molecule": "COCC(C)Nc1ncc2c(-c3cccc(-c4nnc(C)o4)c3)cc(C3CCC(O)CC3)n2n1 (stereo not shown)", "IC50": "≤ 100 nM"}
{"molecule": "COC[C@H](C)Nc1ncc2c(-c3cnn(C[C@@H]4CCC(=O)N4)c3)cc([C@H]3CC[C@H](O)CC3)n2n1", "IC50": "≤ 100 nM"}
{"molecule": "COC[C@H](C)Nc1ncc2c(-c3ccc(CN4CCOCC4)cc3)cc([C@H]3CC[C@H](O)CC3)n2n1", "IC50": "≤ 100 nM"}
{"molecule": "C[C@@H](CC(F)(F)F)Nc1ncc2c(-c3ccnc([S@@](C)(=N)=O)c3)cc([C@H]3CC[C@H](O)CC3)n2n1", "IC50": "≤ 100 nM"}
{"molecule": "CC[C@H](C)Nc1ncc2c(C3=CCOCC3)cc([C@H]3CC[C@H](O)CC3)n2n1", "IC50": "≤ 100 nM"}
{"molecule": "COC[C@H](C)Nc1ncc2c([C@@H]3CCN(S(C)(=O)=O)C3)cc([C@H]3CC[C@H](O)CC3)n2n1", "IC50": "100 to 1000 nM"}
{"molecule": "COC[C@H](C)Nc1ncc2c(-c3ccc(CN4CCN(C(C)=O)CC4)cc3)cc([C@H]3CC[C@H](O)CC3)n2n1", "IC50": "≤ 100 nM"}
{"molecule": "COC[C@H](C)Nc1ncc2c(-c3ccc(C(=O)N4CCCC4)cc3)cc([C@H]3CC[C@H](O)CC3)n2n1", "IC50": "≤ 100 nM"}
{"molecule": "COC[C@H](C)Nc1ncc2c(C3=CCN(C(=O)OC(C)(C)C)CC3)cc([C@H]3CC[C@H](O)CC3)n2n1", "IC50": "≤ 100 nM"}
{"molecule": "COC[C@H](C)Nc1ncc2c(-c3cnn(Cc4cccnc4)c3)cc([C@H]3CC[C@H](O)CC3)n2n1", "IC50": "≤ 100 nM"}
